The reported measurements were obtained from ChEMBL document CHEMBL1126865.

System: Haemophilus influenzae
Test: In vitro antibacterial activity against Haemophilus influenza C.L
Type: functional
Measured log10 of MIC accompanies every entry in the list below.
Heads up, the numbers here are log10 of MIC in µg/mL units.

Some solved entries appear below for comparison.
compound	log10 of MIC
CCS(=O)(=O)C1=C(C(=O)O)N2C(=O)[C@@H](NC(=O)/C(=N/OCC3CC3)c3csc(N)n3)CN2C1	-0.90
CCCCO/N=C(/C(=O)N[C@H]1CN2CC(S(C)(=O)=O)=C(C(=O)O)N2C1=O)c1csc(N)n1	-0.90
CCS(=O)(=O)C1=C(C(=O)O)N2C(=O)[C@@H](NC(=O)/C(=N/OCSC)c3csc(N)n3)CN2C1	-0.30
CO/N=C(\C(=O)NC1CN2CC(S(C)(=O)=O)=C(C(=O)O)N2C1=O)c1csc(N)n1 (stereo not drawn)	-0.30
N#CC1=C(C(=O)O)N2C(=O)[C@@H](NC(=O)/C(=N/OCCF)c3csc(N)n3)CN2C1	-0.60

State the measured log10 of MIC (Haemophilus influenzae) of `N#CC1=C(C(=O)O)N2C(=O)[C@@H](NC(=O)Cc3cccs3)CN2C1`
1.20

State the measured log10 of MIC (Haemophilus influenzae) of `CCCS(=O)(=O)C1=C(C(=O)O)N2C(=O)[C@@H](NC(=O)/C(=N/OCCBr)c3csc(N)n3)CN2C1`
-0.90

State the measured log10 of MIC (Haemophilus influenzae) of `CS(=O)(=O)C1=C(C(=O)O)N2C(=O)[C@@H](NC(=O)/C(=N/OCC#N)c3csc(N)n3)CN2C1`
0.30
